From: patent US20110112151A1

# maps each entry to its inhibition at 1 µM
- Measurement target: 11β-HSD1 (Homo sapiens, UniProt P28845)
- Construct: expressed in transfected cells; host or cells: HEK 293 (stably transfected, HEK 293/HSD11B1)
- Sequence (P28845 whole entry): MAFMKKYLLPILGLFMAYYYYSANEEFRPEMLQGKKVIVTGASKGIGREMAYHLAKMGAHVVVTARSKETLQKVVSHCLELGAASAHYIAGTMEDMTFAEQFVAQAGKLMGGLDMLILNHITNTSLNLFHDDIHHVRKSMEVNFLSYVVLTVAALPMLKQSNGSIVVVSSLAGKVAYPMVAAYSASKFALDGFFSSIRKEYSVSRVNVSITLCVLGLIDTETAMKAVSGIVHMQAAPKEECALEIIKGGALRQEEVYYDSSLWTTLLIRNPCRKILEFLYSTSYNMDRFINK
- Protocol description: 11β-HSD1 HEK assay (cell based assay, SPA)
- Particulars: HEK293; at 1 μM; whole HEK 293 cells stably transfected with the HSD11B1 gene, 3H-cortisone substrate; read-out: Activity (inhibition of 11β-HSD1)
- Protocol: 11β-HSD1 HEK Assay Protocol (Cell Based Assay) 11β-HSD1 activity is measured in whole HEK 293 cells stably transfected with the HSD11B1 gene. Cells are incubated in 96-well microplates in the presence of tritiated substrate. Enzyme activity is determined by measuring the amount of tritated product by scintillation proximity assay (SPA). Assay plates contain internal high and low controls to allow calculation of percentage inhibition. 1. […] 2. […]

Take a look at these entries with their results.
{"Molecule": "O=C(CS(=O)(=O)Cc1ccccn1)C12CC3CC(CC(C3)C1)C2", "inhibition at 1 µM": "> 60%"}
{"Molecule": "O=C(C[S+]([O-])c1ccccn1)C1(c2ccc(Cl)cc2)CC1 (stereo not shown)", "inhibition at 1 µM": "20 to 60%"}
{"Molecule": "O=C(Nc1nnc([S+]([O-])CC(=O)C23CC4CC(CC(C4)C2)C3)s1)C1CC1 (stereo not shown)", "inhibition at 1 µM": "> 60%"}

Now consider a different molecule.
Query block: Identify measured inhibition at 1 µM corresponding to Cn1ccnc1SCC(=O)C1(c2ccc(Cl)cc2)CCCC1
Result block: 20 to 60%

###

- Measurement target: 11β-HSD1 (Homo sapiens)
- Construct: expressed in transfected cells; host or cells: HEK 293 (stably transfected, HEK 293/HSD11B1)
- Protocol description: 11β-HSD1 HEK assay (cell based assay, SPA)
- Particulars: HEK293; at 1 μM; whole HEK 293 cells stably transfected with the HSD11B1 gene, 3H-cortisone substrate; read-out: Activity (inhibition of 11β-HSD1)
Value kind: inhibition at 1 µM

Take a look at these entries with their results.
{"Molecule": "O=C(/C=C/c1cccnc1)C12CC3CC(CC(C3)C1)C2", "Measurement target": "11β-HSD1 (Homo sapiens)", "inhibition at 1 µM": "> 60%"}
{"Molecule": "Cn1ccnc1S(=O)(=O)CC(=O)C1(c2ccc(Cl)cc2)CCCC1", "Measurement target": "11β-HSD1 (Homo sapiens)", "inhibition at 1 µM": "20 to 60%"}
{"Molecule": "Cn1c(SCC(=O)C23CC4CC(CC(C4)C2)C3)nnc1C1CC1", "Measurement target": "11β-HSD1 (Homo sapiens)", "inhibition at 1 µM": "> 60%"}
{"Molecule": "O=C(CS(=O)(=O)c1ccc(C(F)(F)F)cn1)C12CC3CC(CC(C3)C1)C2", "Measurement target": "11β-HSD1 (Homo sapiens)", "inhibition at 1 µM": "20 to 60%"}
{"Molecule": "Cn1ccnc1[S+]([O-])CC(=O)C1(c2ccc(Cl)cc2)CC1 (stereo not shown)", "Measurement target": "11β-HSD1 (Homo sapiens)", "inhibition at 1 µM": "< 20%"}
{"Molecule": "O=C(CSc1ccccn1)C1(c2ccc(Cl)cc2)CC1", "Measurement target": "11β-HSD1 (Homo sapiens)", "inhibition at 1 µM": "< 20%"}
{"Molecule": "O=C(COCc1ccc(C(F)(F)F)nc1)C12CC3CC(CC(C3)C1)C2", "Measurement target": "11β-HSD1 (Homo sapiens)", "inhibition at 1 µM": "20 to 60%"}
{"Molecule": "CC(=O)Nc1nnc(S(=O)(=O)CC(=O)C23CC4CC(CC(C4)C2)C3)s1", "Measurement target": "11β-HSD1 (Homo sapiens)", "inhibition at 1 µM": "> 60%"}
{"Molecule": "Cc1cc(C)c(C(=O)COc2cccnc2)c(C)c1", "Measurement target": "11β-HSD1 (Homo sapiens)", "inhibition at 1 µM": "< 20%"}
{"Molecule": "O=C(CSCc1ccccn1)C12CC3CC(CC(C3)C1)C2", "Measurement target": "11β-HSD1 (Homo sapiens)", "inhibition at 1 µM": "> 60%"}

Query block: Identify measured inhibition at 1 µM corresponding to O=C(CS(=O)(=O)Cc1ccncc1)C12CC3CC(CC(C3)C1)C2
Result block: > 60%

Query block: Identify measured inhibition at 1 µM corresponding to O=C(CSCc1ccncc1)C12CC3CC(CC(C3)C1)C2
Result block: > 60%

Query block: Identify measured inhibition at 1 µM corresponding to Cn1c(SCC(=O)C23CC4CC(CC(C4)C2)C3)nnc1-c1cccs1
Result block: > 60%

Query block: Identify measured inhibition at 1 µM corresponding to O=C(CS(=O)(=O)c1ccncc1)C12CC3CC(CC(C3)C1)C2
Result block: > 60%

Query block: Identify measured inhibition at 1 µM corresponding to Cc1cccc(S(=O)(=O)CC(=O)C23CC4CC(CC(C4)C2)C3)n1
Result block: > 60%

Query block: Identify measured inhibition at 1 µM corresponding to Cc1cc(C)c(C(=O)COc2ccc(C)nc2)c(C)c1
Result block: < 20%

Query block: Identify measured inhibition at 1 µM corresponding to Cc1cccc([S+]([O-])CC(=O)C23CC4CC(CC(C4)C2)C3)n1 (stereo not shown)
Result block: > 60%

Query block: Identify measured inhibition at 1 µM corresponding to Cc1nnc(SCC(=O)C23CC4CC(CC(C4)C2)C3)n1C
Result block: > 60%

Query block: Identify measured inhibition at 1 µM corresponding to O=C(C[S+]([O-])c1ccncc1)C12CC3CC(CC(C3)C1)C2 (stereo not shown)
Result block: > 60%

Query block: Identify measured inhibition at 1 µM corresponding to O=C(CS(=O)(=O)Cc1ccc[n+]([O-])c1)C12CC3CC(CC(C3)C1)C2
Result block: > 60%

Query block: Identify measured inhibition at 1 µM corresponding to Cc1cc(C)c(C(=O)CSc2ccccn2)c(C)c1
Result block: < 20%

Query block: Identify measured inhibition at 1 µM corresponding to O=C(COc1cncc(Cl)c1)C12CC3CC(CC(C3)C1)C2
Result block: 20 to 60%

Query block: Identify measured inhibition at 1 µM corresponding to O=C(C[S+]([O-])Cc1cccnc1)C12CC3CC(CC(C3)C1)C2 (stereo not shown)
Result block: > 60%

Query block: Identify measured inhibition at 1 µM corresponding to Cn1ccnc1SCC(=O)C1(c2ccc(Cl)cc2)CCCCC1
Result block: 20 to 60%

Query block: Identify measured inhibition at 1 µM corresponding to Cc1nnc(SCC(=O)C23CC4CC(CC(C4)C2)C3)n1C(C)C
Result block: > 60%
